Hello, the source for this data is ChEMBL document CHEMBL1275354, in case you need it.

# System: Mus musculus
# Method Notes: Neurotoxicity in albino CF1 mouse assessed as minimal motor impairment at 300 mg/kg, ip after 4 hrs by rotarod test
# Type: toxicity, organism-based
# Set-up: dose 300 mg/kg, route intraperitoneal
# Condition Summary: in vivo
Quantity Kind: Activity

Previously resolved entries follow.
{"columns": ["Structure String", "Obs Value"],
 "data": [
  ["COc1ccc(-c2c[nH]c(-c3ccccc3)n2)cc1", "Toxic"],
  ["O=[N+]([O-])c1cccc(-c2c[nH]c(-c3ccccc3)n2)c1", "Non-toxic"],
  ["COc1cccc(-c2nc(-c3ccccc3)c[nH]2)c1", "Non-toxic"],
  ["O=[N+]([O-])c1cccc(-c2nc(-c3ccccc3)c[nH]2)c1", "Non-toxic"]
]}

For each of the molecules below, state Activity.
1. Clc1ccc(-c2c[nH]c(-c3ccccc3)n2)cc1
2. FC(F)(F)c1ccc(-c2c[nH]c(-c3ccccc3)n2)cc1
3. O=[N+]([O-])c1ccc(-c2nc(-c3cccc(C(F)(F)F)c3)c[nH]2)cc1
4. COc1cccc(-c2c[nH]c(-c3ccccc3)n2)c1
5. FC(F)(F)c1ccc(-c2nc(-c3ccccc3)c[nH]2)cc1
6. O=[N+]([O-])c1ccc(-c2c[nH]c(-c3ccccc3)n2)cc1
7. Clc1ccc(-c2nc(-c3ccccc3)c[nH]2)cc1

1. Non-toxic
2. Toxic
3. Non-toxic
4. Non-toxic
5. Non-toxic
6. Non-toxic
7. Non-toxic

Each of the following entries comes with a recorded value; kindly state Activity for each.
1. c1ccc(-c2c[nH]c(-c3ccncc3)n2)cc1
2. O=[N+]([O-])c1ccc(-c2nc(-c3ccccc3)c[nH]2)cc1
3. FC(F)(F)c1cccc(-c2nc(-c3ccccc3)c[nH]2)c1
4. c1ccc(-c2c[nH]c(C3CCCCC3)n2)cc1

Toxic
Non-toxic
Non-toxic
Non-toxic

Query (molecule): COc1ccc(-c2nc(-c3ccccc3)c[nH]2)cc1 ; field requested: Activity Toxic

###

# Measured Target: Sodium channel protein type 2 subunit alpha (Homo sapiens)
# Sequence (Q99250 whole entry): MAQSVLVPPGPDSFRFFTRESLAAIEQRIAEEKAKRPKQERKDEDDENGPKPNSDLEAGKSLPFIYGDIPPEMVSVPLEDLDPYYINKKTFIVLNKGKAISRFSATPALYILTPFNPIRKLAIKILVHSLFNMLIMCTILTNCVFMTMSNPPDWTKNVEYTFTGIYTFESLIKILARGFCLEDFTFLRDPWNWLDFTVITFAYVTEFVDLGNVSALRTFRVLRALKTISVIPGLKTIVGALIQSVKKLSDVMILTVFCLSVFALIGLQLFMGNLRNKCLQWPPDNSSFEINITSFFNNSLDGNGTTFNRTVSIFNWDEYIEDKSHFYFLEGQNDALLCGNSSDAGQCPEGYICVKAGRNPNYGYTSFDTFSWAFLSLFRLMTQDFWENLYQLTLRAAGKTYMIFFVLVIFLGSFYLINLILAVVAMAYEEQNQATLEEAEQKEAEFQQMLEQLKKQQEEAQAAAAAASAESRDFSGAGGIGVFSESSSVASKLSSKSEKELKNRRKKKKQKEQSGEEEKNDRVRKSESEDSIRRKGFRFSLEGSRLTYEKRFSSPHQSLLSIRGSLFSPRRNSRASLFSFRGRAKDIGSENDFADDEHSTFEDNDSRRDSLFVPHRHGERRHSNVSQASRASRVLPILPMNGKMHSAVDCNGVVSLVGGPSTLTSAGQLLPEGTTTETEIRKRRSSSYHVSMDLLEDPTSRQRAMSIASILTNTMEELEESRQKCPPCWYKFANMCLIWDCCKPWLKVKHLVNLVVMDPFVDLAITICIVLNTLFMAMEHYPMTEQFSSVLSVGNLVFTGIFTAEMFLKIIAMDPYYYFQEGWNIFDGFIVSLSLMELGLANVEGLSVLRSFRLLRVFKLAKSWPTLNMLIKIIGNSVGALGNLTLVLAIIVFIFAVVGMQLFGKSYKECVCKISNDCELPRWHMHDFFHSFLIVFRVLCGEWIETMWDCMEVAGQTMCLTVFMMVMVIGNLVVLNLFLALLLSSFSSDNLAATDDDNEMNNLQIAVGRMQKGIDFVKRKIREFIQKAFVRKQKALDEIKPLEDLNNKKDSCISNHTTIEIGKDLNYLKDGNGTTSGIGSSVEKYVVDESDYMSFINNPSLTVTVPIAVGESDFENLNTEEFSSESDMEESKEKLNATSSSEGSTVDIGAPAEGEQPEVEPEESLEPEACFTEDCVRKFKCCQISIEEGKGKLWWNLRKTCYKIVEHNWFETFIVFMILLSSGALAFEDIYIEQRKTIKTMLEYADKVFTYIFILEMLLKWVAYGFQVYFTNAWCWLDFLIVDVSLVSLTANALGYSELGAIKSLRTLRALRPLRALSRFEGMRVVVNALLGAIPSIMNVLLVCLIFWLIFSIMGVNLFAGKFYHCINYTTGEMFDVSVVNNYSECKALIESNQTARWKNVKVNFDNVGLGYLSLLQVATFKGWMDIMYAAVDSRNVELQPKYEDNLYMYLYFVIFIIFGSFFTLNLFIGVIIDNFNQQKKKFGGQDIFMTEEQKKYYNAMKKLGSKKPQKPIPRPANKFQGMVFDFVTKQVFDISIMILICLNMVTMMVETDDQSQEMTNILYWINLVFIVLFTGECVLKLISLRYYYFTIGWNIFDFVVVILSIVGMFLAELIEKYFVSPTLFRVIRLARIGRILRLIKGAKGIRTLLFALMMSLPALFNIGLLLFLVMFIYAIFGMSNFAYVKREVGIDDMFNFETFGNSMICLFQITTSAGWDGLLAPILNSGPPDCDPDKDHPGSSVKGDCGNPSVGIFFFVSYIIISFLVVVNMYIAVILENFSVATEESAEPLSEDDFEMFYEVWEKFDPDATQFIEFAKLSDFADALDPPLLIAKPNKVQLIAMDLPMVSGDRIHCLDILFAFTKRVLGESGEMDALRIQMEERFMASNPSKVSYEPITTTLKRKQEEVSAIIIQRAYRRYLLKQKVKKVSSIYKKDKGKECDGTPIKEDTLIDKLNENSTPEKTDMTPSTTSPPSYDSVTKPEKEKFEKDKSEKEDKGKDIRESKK
# Method Notes: Inhibition of human NaV1.2 expressed in HEK cells at -60 mV holding potential by patch clamp recording technique
Quantity Kind: IC50 (µM)
Give bare numbers, in µM.

Each compound below has a recorded value; state its IC50.
1. COc1ccc(-c2nc(-c3ccccc3)c[nH]2)cc1
2. Clc1cccc(-c2c[nH]c(-c3ccccc3)n2)c1
3. FC(F)(F)c1ccc(-c2nc(-c3ccccc3)c[nH]2)cc1

21.4
17.9
10.1

###

# Test system: Mus musculus
# Method Notes: Neurotoxicity in ip dosed albino CF1 mouse assessed as minimum dose required to cause toxicity after 4 hrs by rotarod test
# Assay type: organism-based
# Condition Summary: in vivo
Answer each item with its documented MED.

Past entries and their recorded results:
{"columns": ["Structure String", "Obs Value"],
 "data": [
  ["c1ccc(-c2c[nH]c(-c3ccoc3)n2)cc1", "> 100 mg/kg"],
  ["FC(F)(F)c1ccc(-c2nc(-c3ccccc3)c[nH]2)cc1", "> 300 mg/kg"],
  ["COc1cccc(-c2nc(-c3ccccc3)c[nH]2)c1", "> 300 mg/kg"]
]}

// switching to the query compound
Quick check: MED of Clc1cccc(-c2c[nH]c(-c3ccccc3)n2)c1 ? > 300 mg/kg
